biological target: UniProt P04150
Sequence (P04150 whole entry): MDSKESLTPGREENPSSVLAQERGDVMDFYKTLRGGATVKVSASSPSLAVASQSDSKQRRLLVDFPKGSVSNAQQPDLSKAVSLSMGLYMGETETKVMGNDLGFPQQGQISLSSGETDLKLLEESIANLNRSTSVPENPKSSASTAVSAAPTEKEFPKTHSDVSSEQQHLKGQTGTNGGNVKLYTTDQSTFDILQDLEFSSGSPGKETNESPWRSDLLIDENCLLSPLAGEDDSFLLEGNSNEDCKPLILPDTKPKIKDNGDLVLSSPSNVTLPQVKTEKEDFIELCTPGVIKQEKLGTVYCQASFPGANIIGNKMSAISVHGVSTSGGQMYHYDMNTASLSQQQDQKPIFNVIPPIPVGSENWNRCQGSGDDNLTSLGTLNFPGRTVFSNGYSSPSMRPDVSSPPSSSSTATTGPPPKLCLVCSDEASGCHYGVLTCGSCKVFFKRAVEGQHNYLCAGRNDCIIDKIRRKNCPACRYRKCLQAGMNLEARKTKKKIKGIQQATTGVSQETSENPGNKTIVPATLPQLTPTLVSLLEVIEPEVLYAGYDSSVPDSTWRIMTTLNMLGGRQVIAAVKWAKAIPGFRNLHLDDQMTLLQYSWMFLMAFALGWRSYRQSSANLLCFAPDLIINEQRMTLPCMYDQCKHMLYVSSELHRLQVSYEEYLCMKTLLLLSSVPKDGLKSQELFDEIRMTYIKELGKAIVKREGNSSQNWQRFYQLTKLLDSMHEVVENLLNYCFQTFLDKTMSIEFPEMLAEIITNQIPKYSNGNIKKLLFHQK
Output label 1 for records whose EC50 is lower than 8 nM, label 0 for records at or above 8 nM.

Input: Given C[C@]12C=CC(=O)C=C1[C@@H](F)C[C@H]1[C@@H]3C[C@H]4CN(S(=O)(=O)c5cccs5)C[C@@]4(C(=O)CO)[C@@]3(C)C[C@H](O)[C@@]12F , is recorded EC50 strictly lower than 8 nM?
Output: label 1

Input: How about C[C@]12C=CC(=O)C=C1[C@@H](F)C[C@H]1[C@@H]3C[C@H]4CN(Cc5ccccc5)C[C@@]4(C(=O)CF)[C@@]3(C)C[C@H](O)[C@@]12F ?
Output: label 1

Input: How about C[C@]12C=CC(=O)C=C1[C@@H](F)C[C@H]1[C@@H]3C[C@H]4CN(Cc5ccc(Cl)cc5)C[C@@]4(C(=O)CO)[C@@]3(C)C[C@H](O)[C@@]12F ?
Output: label 1

All figures here come from ChEMBL document CHEMBL4184331.
